test system: SK-MEL-28 melanoma; experiment: NCI-60 one-dose screen, 48 h; details: 10 µM unless noted
The panel holds about 83,000 compounds, 20% with a hit somewhere; the sample as a whole holds those more often. Active and inactive are the calls of the source. Rule for the calls: active = growth percent below 10; inactive = the rest.
Write down one outcome, taken from active, inactive

For orientation, consider the following solved cases.
compound: COC1=CC(c2ccc[nH]2)=N/C1=C\c1[nH]c(C)c(C(=O)Oc2ccccc2)c1C
class: active
--
compound: O=C(/C=C/c1ccc(F)cc1)Nc1ncc(Cc2ccc(F)cc2)s1
class: inactive
--
compound: CN(Cc1ccccc1)c1nc(Cl)c(C2CC(c3ccc(F)cc3)=NN2C=O)s1 (centres undefined)
class: inactive
--
compound: Nc1nc(N)c2c(n1)NC(c1cccc(Nc3ccnc4cc(C(F)(F)F)ccc34)c1)CC(c1ccc(F)cc1)=N2 (centres undefined)
class: inactive
--
compound: CCOC(=O)c1cc2c(n1Cc1cc(OC)cc(OC)c1Br)-c1nc(NC(C)=O)sc1CCC2
class: inactive

Pending compound:
Input line: Just curious, what result did COc1ccc(C/C(C)=C(/c2ccc(OCCN3CCCC3)cc2)c2ccc(OC(=O)NCc3ccccc3)cc2)cc1 get here?
Output line: inactive

###

test system: KM12 colon; experiment: NCI-60 one-dose screen, 48 h; settings: 10 µM unless noted
This is part of a sample that, as a whole, favours compounds with a hit. Of some 83,000 tested, about 20% had one in any assay. Active and inactive are the calls of the source. Rule for the calls: active = growth percent below 10; inactive = the rest.
Write down one outcome, taken from active, inactive

For orientation, consider the following solved cases.
compound: COc1ccccc1/C=C1\COc2ccc(O)c(O)c2C1=O
class: inactive

compound: CCN(CC)CC#CCOC(=O)[C@]1(C)CCC[C@]2(C)c3ccc(C(C)C)cc3CC[C@@H]12
class: inactive

compound: CC1=C2[C@@H](CC1)[C@]1(C)O[C@@](C3CC3)(C[C@H]1OC(=O)CO)[C@H]2OC(=O)/C=C/c1ccccc1
class: inactive

Pending compound:
Input line: Just curious, what result did O=C(N=Nc1c(O)[nH]c2ccccc12)Nc1ccc(Br)cc1 get here?
Output line: inactive

###

tested on: OVCAR-5 ovarian; test: NCI-60 one-dose screen, 48 h (100 = growth as untreated, 0 = no growth, -100 = all killed); settings: 10 µM
About 83,000 compounds went through this panel and 20% of them were active in at least one assay; those are over-represented in the sample as a whole.
Recorded measurements of growth, one per entry
Write the number in % without appending the unit.

structureSmiles: O=C(/C=C/c1cccc(Oc2ccc(Cl)cc2)c1)c1ccccc1
growth (%): 96
//
structureSmiles: CC(=O)/C=C/c1ccc(OCc2ccc(C(C)(C)C)cc2)cc1
growth (%): 89
//
structureSmiles: COc1ccc(C(=O)/C=C/c2ccc(OCc3cccc(C(F)(F)F)c3)c(OC)c2)cc1OC
growth (%): 109
//
structureSmiles: CCN(Cc1ccccc1)c1ccc(/C=C2\COc3ccccc3C2=O)cc1
growth (%): 101

Input line: Find the measured growth of CC(=O)/C=C/c1ccc(N(C)Cc2ccc(C(C)(C)C)cc2)cc1 and report it.
Output line: 102

Input line: Find the measured growth of COc1ccc(C(=O)/C=C/c2ccc(OCc3ccc(Cl)cc3)cc2)cc1OC and report it.
Output line: 103

Input line: Find the measured growth of CC(=O)/C=C/c1ccc(N(CCO)Cc2ccc(C(C)(C)C)cc2)cc1 and report it.
Output line: 78.2

###

system: M14 melanoma; experiment: NCI-60 one-dose screen, 48 h (100 = growth as untreated, 0 = no growth, -100 = all killed); conditions: 10 µM unless noted
The panel holds about 83,000 compounds, 20% with a hit somewhere; the sample as a whole holds those more often. The source made the active and inactive calls. The calls were made as follows: active = growth percent below 10; inactive = the rest.
quantityKind: growth

Some molecules with recorded growth:
molecule: N#CSc1c[nH]c2ccc(/C=C/C(=O)/C=C(/C=C/c3ccc4[nH]cc(SC#N)c4c3)OB(F)F)cc12
growth: -39.9% (active)
//
molecule: CCN1CCN(CC(=O)Nc2nc3ccc(NCc4ccc(C)cc4)cc3s2)CC1
growth: -44% (active)

Let us move to another entry and its growth.
Input line: Find the measured growth of O=C(CC1(O)C(=O)Nc2ccc(Br)cc21)c1ccc(Cl)cc1 (centres undefined) and report it.
Output line: 99.3% (inactive)

###

test system: CCRF-CEM leukemia; assay: NCI-60 one-dose screen, 48 h; conditions: 10 µM unless noted
Compounds without any hit were thinned out: in the full panel of roughly 83,000, 20% have a hit. Calls of active or inactive are those of the source. The calls were made as follows: active = growth percent below 10; inactive = the rest.
Write down one outcome, taken from t (active), f (inactive)

molecule: CN1C(=O)N(C)C2(c3ccccc3)N(CC(=O)Nc3ccccc3O)C(=O)NC12c1ccccc1 (configuration not stated)
class: f
--
molecule: COc1ccc(Cl)cc1Nc1nc(C(F)(F)F)ccc1C(=O)N/N=C/c1ccc(N(C)C)cc1
class: t

Input line: Just curious, what result did O=C1c2cccc3cccc(c23)C(=O)N1N1C(=O)c2cccc3c(N4CCNCC4)ccc(c23)C1=O get here?
Output line: f

Input line: Just curious, what result did Cc1cccc(Cc2cnc(NC(=O)CCCOc3ccc(Cl)cc3)s2)c1 get here?
Output line: f

Input line: Just curious, what result did Cc1ccc(C(=O)c2ccc(CC(=O)N=Nc3c(O)[nH]c4ccc(OC(F)(F)F)cc34)n2C)cc1 get here?
Output line: f

Input line: Just curious, what result did O=C(c1ccc(Nc2nccc(NCCCNc3ccnc4cc(Cl)ccc34)n2)cc1)N1CCCCC1 get here?
Output line: f

Input line: Just curious, what result did CCOC(=O)c1cc2c(n1Cc1cc(OC)cc(OC)c1Br)-c1nc(NC(C)=O)sc1CCC2 get here?
Output line: f

Input line: Just curious, what result did C=C1CCC2C3(C)COC(c4ccc(NC(C)=O)cc4)OC3CCC2(C)C1C/C=C1/C(=O)OCC1O (configuration not stated) get here?
Output line: f

Input line: Just curious, what result did Nc1nc2ccccc2c2c(=O)c3ccc(Cl)cc3sc12 get here?
Output line: f

Input line: Just curious, what result did Clc1cccc(Nc2ncnc3ccc(-c4cncc(-n5cnnn5)c4)cc23)c1 get here?
Output line: f

Input line: Just curious, what result did O=C(CCCOc1ccc(Br)cc1)Nc1ncc(Cc2ccc(F)cc2)s1 get here?
Output line: f

###

Recorded measurements of growth, one per entry
tested on: HOP-92 NSCLC; assay: NCI-60 one-dose screen, 48 h (100 = growth as untreated, 0 = no growth, -100 = all killed); details: 10 µM unless noted
The panel holds about 83,000 compounds, 20% with a hit somewhere; the sample as a whole holds those more often.
Write the number in % without appending the unit.

Some compounds with recorded growth:
compound: Nc1nc2ccccc2c2c(=O)c3ccc(Cl)cc3sc12
unitsText: %
growth: 84.1
--
compound: O=C(CCl)N(O)c1ccc(/C=C/c2ccccc2)cc1
unitsText: %
growth: 81.8
--
compound: CCOC(=O)C1=C(C)NC(=O)NC1c1c(Cl)n(-c2ccccc2)c2ccccc12 (stereo not given)
unitsText: %
growth: 59.5
--
compound: Cc1n(Cc2ccc3ccccc3c2)c(Cl)c(Cl)[n+]1Cc1ccc2ccccc2c1
unitsText: %
growth: -11.3
--
compound: COC(=O)c1nc(-c2ccccc2)oc1S(=O)(=O)N(C)CCO
unitsText: %
growth: 41.7
--
compound: Cc1ccc(S(=O)(=O)Nc2cc(Sc3ccccc3)c(O)c3ccccc23)cc1
unitsText: %
growth: 18.2

Input line: Find the measured growth of O=C([C@H]1C[C@H]1c1ccc(S(F)(F)(F)(F)F)cc1)N1CCN(c2cc(Cl)ccc2C(F)(F)F)CC1 and report it.
Output line: 88.3

Input line: Find the measured growth of C[C@]12CCc3c(ccc4cc(O)ccc34)[C@@H]1C[C@H](O)[C@@H]2O and report it.
Output line: 85.6

Input line: Find the measured growth of Cc1cccc(-c2nnc(SCC(=O)Nc3ncc(Cc4ccccc4)s3)n2N2C(=O)CSC2=S)c1 and report it.
Output line: 8.49

Input line: Find the measured growth of COc1ccc(C2=C(CN)C(O)NC(=NCC(=O)c3ccc4ccccc4c3)N2)cc1 (stereo not given) and report it.
Output line: 113

Input line: Find the measured growth of Nc1nc(CSc2n[nH]c(N)n2)nc(Nc2ccccc2)n1 and report it.
Output line: 95.4

Input line: Find the measured growth of CCCCCCNC(=O)Oc1ccc(/C(=C(/CC)Cc2ccccc2)c2ccc(OCCCN(C)C)cc2)cc1 and report it.
Output line: 54.3

Input line: Find the measured growth of CC1=CC(C)(C)NC(=S)N1c1ccc(Cl)cc1 and report it.
Output line: 114

Input line: Find the measured growth of COc1ccc(N2CCN(S(=O)(=O)c3oc(-c4ccccc4)nc3C#N)CC2)cc1 and report it.
Output line: 101

Input line: Find the measured growth of CCOC(=O)N(O)c1ccc(/C=C/c2ccccc2)cc1 and report it.
Output line: 67.4

Input line: Find the measured growth of CCN(CC)CC(=O)Nc1ccc2ncnc(Nc3ccc(Oc4cccc(F)c4)c(Cl)c3)c2c1 and report it.
Output line: 39.5

Input line: Find the measured growth of CC1(C)C(N)=Nc2cc(OCCCCN3Cc4ccccc4C3)c(OCC3CC3)cc21 and report it.
Output line: 103

Input line: Find the measured growth of CC(=O)OC[C@]12CCC(C)(C)C=C1[C@H]1CC[C@@H]3[C@@]4(C)CCCNC(C)(C)[C@@H]4CC[C@@]3(C)[C@]1(C)CC2 and report it.
Output line: 83

Input line: Find the measured growth of CC(=O)Nc1c(I)c(NC(C)=O)c(I)c(C(=O)O)c1I and report it.
Output line: 94.3

Input line: Find the measured growth of COc1ccc(C2Nc3nc(SC)nc(N)c3N=C3c4ccccc4CCC32)cc1 (stereo not given) and report it.
Output line: 50.7
